system-tested: Human 11b-HSD1 (Homo sapiens, UniProt P28845)
Sequence (P28845 whole entry): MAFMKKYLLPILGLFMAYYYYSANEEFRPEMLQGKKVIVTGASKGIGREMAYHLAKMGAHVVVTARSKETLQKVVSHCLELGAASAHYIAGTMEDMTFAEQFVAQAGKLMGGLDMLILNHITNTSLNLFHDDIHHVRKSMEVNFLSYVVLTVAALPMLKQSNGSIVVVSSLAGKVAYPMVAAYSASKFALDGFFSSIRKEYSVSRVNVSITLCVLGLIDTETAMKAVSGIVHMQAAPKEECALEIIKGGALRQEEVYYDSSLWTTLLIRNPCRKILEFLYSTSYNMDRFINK
assay-summary: Inhibition of cortisone-to-cortisol conversion in CHO-K1 cells over-expressing human 11b-HSD1 (HTRF cortisol assay)
stated-conditions: CHO-K1 cells over-expressing human 11b-HSD1, 160 nM cortisone, 3 hours, 37° C.
Measured IC50 accompanies every entry in the list below.
observable: IC50

>  <compound>
COc1cccc2ccc(C(=O)N[C@H]3C4CC5CC3C[C@](C(N)=O)(C5)C4)nc12 [Example 50]

>  <meas-value>
< 0.1 µM

$$$$
>  <compound>
NC(=O)[C@]12CC3CC(C1)[C@@H](NC(=O)c1ccc(-c4ccccc4)o1)C(C3)C2 [Example 1]

>  <meas-value>
< 0.1 µM

$$$$
>  <compound>
Cn1c(C(=O)N[C@H]2C3CC4CC2C[C@](C(N)=O)(C4)C3)ccc1-c1ccccc1Cl [Example 38]

>  <meas-value>
< 0.1 µM

$$$$
>  <compound>
NC(=O)[C@]12CC3CC(C1)[C@@H](NC(=O)c1ccc4cccc(OCc5ccccc5)c4n1)C(C3)C2 [Example 53]

>  <meas-value>
< 0.1 µM

$$$$
>  <compound>
NC(=O)[C@]12CC3CC(C1)[C@@H](NC(=O)c1ccc(-c4cccs4)s1)C(C3)C2 [Example 21]

>  <meas-value>
< 0.1 µM

$$$$
>  <compound>
Cn1c(C(=O)N[C@H]2C3CC4CC2C[C@](C(N)=O)(C4)C3)ccc1-c1ccc(F)cc1 [Example 36]

>  <meas-value>
< 0.1 µM

$$$$
>  <compound>
NC(=O)[C@]12CC3CC(C1)[C@@H](NC(=O)c1ccc(-c4ccc(Cl)cc4)s1)C(C3)C2 [Example 41]

>  <meas-value>
< 0.1 µM

$$$$
>  <compound>
Cn1c(C(=O)N[C@H]2C3CC4CC2C[C@](C(N)=O)(C4)C3)ccc1-c1ccc(Cl)cc1 [Example 35]

>  <meas-value>
< 0.1 µM

$$$$
>  <compound>
NC(=O)[C@]12CC3CC(C1)[C@@H](NC(=O)c1cccc4cccnc14)C(C3)C2 [Example 19]

>  <meas-value>
< 0.1 µM

$$$$
